Data origin: patent US20210388087A1

Target: T1, Human CD3eg linker (human)
T1 construct: Single-chain construct; also called recombinant human CD3
T1 chain: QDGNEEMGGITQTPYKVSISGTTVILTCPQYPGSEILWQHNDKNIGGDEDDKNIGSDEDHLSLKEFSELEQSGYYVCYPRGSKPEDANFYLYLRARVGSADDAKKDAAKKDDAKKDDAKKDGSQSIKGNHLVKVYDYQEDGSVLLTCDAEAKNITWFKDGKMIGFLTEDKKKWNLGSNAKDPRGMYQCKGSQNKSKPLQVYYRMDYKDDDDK
Test: SPR; fold vs parent H183/L072
RECORDED METRIC: fold change of affinity (fold)
Give the value, in units of fold, as a plain number.

Reference set, count: 2
{"BINDER": "H183/L072 VL T31V (antibody, name in Kabat numbering, V domains shown) VH: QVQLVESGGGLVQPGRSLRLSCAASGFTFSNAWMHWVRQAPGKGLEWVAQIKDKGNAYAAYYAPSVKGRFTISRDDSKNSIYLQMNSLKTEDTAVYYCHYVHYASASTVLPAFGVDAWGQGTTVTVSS VL: DIVMTQSPLSLPVTPGEPASISCQASQELVHMNRNVYLHWYQQKPGQAPRLLIYKVSNRFPGVPDRFSGSGSGTDFTLKISRVEAEDVGVYYCAQGTSVPFTFGQGTKLEIK", "READOUT UNITS": "fold", "fold change of affinity": 0.7}
{"BINDER": "H183/L072 VL T97E (antibody, name in Kabat numbering, V domains shown) VH: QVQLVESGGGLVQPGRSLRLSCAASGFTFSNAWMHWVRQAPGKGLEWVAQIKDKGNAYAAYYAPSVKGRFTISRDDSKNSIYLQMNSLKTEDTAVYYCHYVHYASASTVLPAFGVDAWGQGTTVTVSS VL: DIVMTQSPLSLPVTPGEPASISCQASQELVHMNRNTYLHWYQQKPGQAPRLLIYKVSNRFPGVPDRFSGSGSGTDFTLKISRVEAEDVGVYYCAQGTSVPFEFGQGTKLEIK", "READOUT UNITS": "fold", "fold change of affinity": 0.6}

-- ask Which measured fold change of affinity value corresponds to H183/L072 VL S93A (antibody, name in Kabat numbering, V domains shown) VH: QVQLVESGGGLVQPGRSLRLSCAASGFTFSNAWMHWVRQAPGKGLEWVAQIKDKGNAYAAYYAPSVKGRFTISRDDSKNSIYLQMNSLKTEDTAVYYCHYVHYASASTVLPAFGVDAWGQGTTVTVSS VL: DIVMTQSPLSLPVTPGEPASISCQASQELVHMNRNTYLHWYQQKPGQAPRLLIYKVSNRFPGVPDRFSGSGSGTDFTLKISRVEAEDVGVYYCAQGTAVPFTFGQGTKLEIK ?
-- reply 1.1
